Entry source: patent US7998987B2

Listing of recorded pKi by entry.
# Assay system: c-Met (Homo sapiens, UniProt P08581)
# Sequence (P08581 25-1390): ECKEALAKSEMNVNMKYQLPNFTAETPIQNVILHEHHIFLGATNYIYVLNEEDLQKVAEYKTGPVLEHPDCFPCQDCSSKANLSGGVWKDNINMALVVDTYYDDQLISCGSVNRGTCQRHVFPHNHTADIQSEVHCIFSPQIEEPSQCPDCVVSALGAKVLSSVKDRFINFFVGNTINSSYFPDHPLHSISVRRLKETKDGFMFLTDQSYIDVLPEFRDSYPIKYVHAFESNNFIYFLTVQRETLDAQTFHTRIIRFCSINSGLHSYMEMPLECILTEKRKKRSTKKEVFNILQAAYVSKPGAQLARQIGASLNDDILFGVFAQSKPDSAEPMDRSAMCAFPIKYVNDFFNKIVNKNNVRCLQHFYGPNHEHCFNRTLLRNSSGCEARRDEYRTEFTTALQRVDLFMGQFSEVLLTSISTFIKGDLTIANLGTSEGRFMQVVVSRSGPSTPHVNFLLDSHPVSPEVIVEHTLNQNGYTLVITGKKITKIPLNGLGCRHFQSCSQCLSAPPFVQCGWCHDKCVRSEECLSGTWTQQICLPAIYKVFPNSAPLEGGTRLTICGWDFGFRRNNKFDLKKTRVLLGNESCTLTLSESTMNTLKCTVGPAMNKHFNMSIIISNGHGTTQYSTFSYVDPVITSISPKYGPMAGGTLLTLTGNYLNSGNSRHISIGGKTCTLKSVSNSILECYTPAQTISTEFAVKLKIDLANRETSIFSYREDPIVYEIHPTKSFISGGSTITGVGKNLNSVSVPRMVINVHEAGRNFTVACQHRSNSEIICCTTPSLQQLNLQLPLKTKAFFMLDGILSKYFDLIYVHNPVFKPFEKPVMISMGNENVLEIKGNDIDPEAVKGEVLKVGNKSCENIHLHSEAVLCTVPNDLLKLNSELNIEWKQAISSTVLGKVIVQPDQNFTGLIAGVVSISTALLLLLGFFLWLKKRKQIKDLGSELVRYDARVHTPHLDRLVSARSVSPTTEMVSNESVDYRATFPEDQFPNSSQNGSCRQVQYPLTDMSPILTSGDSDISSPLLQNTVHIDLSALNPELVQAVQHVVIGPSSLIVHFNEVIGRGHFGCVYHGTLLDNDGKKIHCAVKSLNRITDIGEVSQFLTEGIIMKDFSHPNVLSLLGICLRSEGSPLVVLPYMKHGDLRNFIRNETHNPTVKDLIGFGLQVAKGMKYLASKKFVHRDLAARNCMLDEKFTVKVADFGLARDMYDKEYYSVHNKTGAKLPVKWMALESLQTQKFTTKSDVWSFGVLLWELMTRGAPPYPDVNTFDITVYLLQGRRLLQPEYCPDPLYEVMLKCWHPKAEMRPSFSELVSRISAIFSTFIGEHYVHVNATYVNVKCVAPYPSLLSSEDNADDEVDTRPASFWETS
# Test: Ki determination for the inhibition of c-Met kinase activity (standard coupled enzyme system)
# Assay type: biochemical
# Particulars: coupled enzyme system, 200 μM ATP, 80 nM c-Met, 30° C.; read-out: c-Met Ki
pKi: −log10 of the molar value.

>  <Compound>
C[C@@H](c1ccc(O)cc1)c1nnc2ccc(Nc3ccc(Cl)nn3)nn12 [Compound 512]

>  <Assay system>
c-Met (Homo sapiens, UniProt P08581)

>  <pKi>
5.70 to 7.00

$$$$
>  <Compound>
Fc1ccc(Nc2ccc3nnc(C4(c5ccc6c(c5)OCO6)CC4)n3n2)cc1Cl [Compound 427]

>  <Assay system>
c-Met (Homo sapiens, UniProt P08581)

>  <pKi>
5.70 to 7.00

$$$$
>  <Compound>
N#Cc1ccc(OCc2nnc3ccc(Nc4cccc(Cl)c4)nn23)cc1 [Compound 379]

>  <Assay system>
c-Met (Homo sapiens, UniProt P08581)

>  <pKi>
< 5.70

$$$$
>  <Compound>
NC(=O)c1ccc(NCc2nnc3ccc(Nc4cccc(Cl)c4)nn23)cc1 [Compound 467]

>  <Assay system>
c-Met (Homo sapiens, UniProt P08581)

>  <pKi>
5.70 to 7.00

$$$$
>  <Compound>
COC[C@@H](C)Nc1ccc2nnc(Cc3ccc(O)cc3)n2n1 [Compound 304]

>  <Assay system>
c-Met (Homo sapiens, UniProt P08581)

>  <pKi>
5.70 to 7.00

$$$$
>  <Compound>
Clc1cccc(Nc2ccc3nnc(CNc4cccc(Oc5ccccc5)c4)n3n2)c1 [Compound 334]

>  <Assay system>
c-Met (Homo sapiens, UniProt P08581)

>  <pKi>
< 5.70

$$$$
>  <Compound>
C[C@@H](c1ccc(O)cc1)c1nnc2ccc(Nc3ccnn3C)nn12 [Compound 505]

>  <Assay system>
c-Met (Homo sapiens, UniProt P08581)

>  <pKi>
5.70 to 7.00

$$$$
>  <Compound>
O=C1COc2ccc(C3=Nn4c(Cc5ccc(O)cc5)nnc4SC3)cc2N1 [Compound 535]

>  <Assay system>
c-Met (Homo sapiens, UniProt P08581)

>  <pKi>
5.70 to 7.00

$$$$
>  <Compound>
Clc1cccc(Nc2ccc3nnc(CNc4ccncc4)n3n2)c1 [Compound 386]

>  <Assay system>
c-Met (Homo sapiens, UniProt P08581)

>  <pKi>
< 5.70

$$$$
